Would you mind telling me the reported DC50 of each entry?
Molecular target: STAT3 (Homo sapiens, UniProt P40763)
Sequence (P40763 whole entry): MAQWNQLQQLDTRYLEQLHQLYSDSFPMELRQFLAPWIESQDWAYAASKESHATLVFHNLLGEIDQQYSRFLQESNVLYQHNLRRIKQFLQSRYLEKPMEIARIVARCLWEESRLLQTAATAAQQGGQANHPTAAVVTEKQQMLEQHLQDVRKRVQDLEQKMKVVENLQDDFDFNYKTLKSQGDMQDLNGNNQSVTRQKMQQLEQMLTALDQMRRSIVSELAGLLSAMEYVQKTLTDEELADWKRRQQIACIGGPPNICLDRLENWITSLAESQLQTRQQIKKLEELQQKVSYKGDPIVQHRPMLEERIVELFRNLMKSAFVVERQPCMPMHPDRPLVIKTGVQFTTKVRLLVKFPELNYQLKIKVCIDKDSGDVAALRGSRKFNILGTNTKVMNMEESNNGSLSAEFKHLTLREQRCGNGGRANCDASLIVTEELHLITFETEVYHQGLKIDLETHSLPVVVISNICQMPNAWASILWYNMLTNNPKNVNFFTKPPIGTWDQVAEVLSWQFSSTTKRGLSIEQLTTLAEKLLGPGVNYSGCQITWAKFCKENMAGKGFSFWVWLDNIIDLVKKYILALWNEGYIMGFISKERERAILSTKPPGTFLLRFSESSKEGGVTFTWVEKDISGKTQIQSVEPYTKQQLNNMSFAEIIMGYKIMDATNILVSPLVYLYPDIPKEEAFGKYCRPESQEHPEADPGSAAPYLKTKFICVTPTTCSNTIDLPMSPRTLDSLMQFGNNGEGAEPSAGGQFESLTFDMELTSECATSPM
Experiment: STAT3 HiBiT degradation assay in transfected A549 cells
Assay type: cell-based
Parameters: expressed in transfected cells; host or cells: A549
Conditions: A549, 24 h; read-out: STAT3 HiBiT A549 degradation 24 h: Average external-Abs DC50

input: May I ask what DC50 has been recorded for Cc1ncsc1-c1ccc(CNC(=O)[C@@H]2C[C@@H](O)CN2C(=O)[C@@H](NC(=O)CCCc2ccc3cc(CO[C@H](C)[C@H](CCC(N)=O)NC(=O)[C@@H]4Cc5cccc6c5N4C(=O)[C@@H](NC(=O)c4cc5cc(C(=O)P(=O)(O)O)ccc5[nH]4)CC6)ccc3c2)C(C)(C)C)cc1 [Compound I-127] ?
output: 100 to 1000 nM

input: Fill blank: measured DC50 of the compound Cc1ncsc1-c1ccc(CNC(=O)[C@@H]2C[C@@H](O)CN2C(=O)[C@@H](NC(=O)Cc2cccc(-c3ccc(CO[C@H](C)[C@H](CCC(N)=O)NC(=O)[C@@H]4Cc5cccc6c5N4C(=O)[C@@H](NC(=O)c4cc5cc(C(=O)P(=O)(O)O)ccc5[nH]4)CC6)cc3)c2)C(C)(C)C)cc1 [Compound I-145] is ____.
output: > 1000 nM

input: If you can, please state the reported DC50 value of Cc1ccc(OC[C@H](CCC(N)=O)NC(=O)[C@@H]2Cc3cccc4c3N2C(=O)[C@@H](NC(=O)c2cc3cc(C(=O)P(=O)(O)O)ccc3[nH]2)CC4)c(F)c1CCCCCC(=O)N[C@H](C(=O)N1C[C@H](O)C[C@H]1C(=O)N[C@@H](C)c1ccc(-c2scnc2C)cc1)C(C)(C)C [Compound I-251] .
output: < 10 nM

input: I would be grateful if you could share the reported DC50 for Cc1ncsc1-c1ccc(CNC(=O)[C@@H]2C[C@@H](O)CN2C(=O)[C@@H](NC(=O)CCCc2cccc3cc(CO[C@H](C)[C@H](CCC(N)=O)NC(=O)[C@@H]4Cc5cccc6c5N4C(=O)[C@@H](NC(=O)c4cc5cc(C(=O)P(=O)(O)O)ccc5[nH]4)CC6)ccc23)C(C)(C)C)cc1 [Compound I-133] .
output: 100 to 1000 nM

input: Entry Cn1c(=O)n(C2CCC(=O)NC2=O)c2ccc(CC[C@H]3CC[C@@H](C(=O)N4CC[C@H]5CC[C@@H](C(=O)N[C@@H](CCC(N)=O)C(=O)NCc6ccc(S(C)(=O)=O)cc6)N5C(=O)[C@@H](NC(=O)c5cc6cc(C(=O)P(=O)(O)O)ccc6[nH]5)C4)CC3)cc21 (stereo partly shown) [Compound I-294] has what DC50?
output: < 10 nM

input: // DC50 lookup, key: Cc1ncsc1-c1ccc([C@H](C)NC(=O)[C@@H]2C[C@@H](O)CN2C(=O)[C@@H](NC(=O)CCCCc2ccc(COC[C@H](CCC(N)=O)NC(=O)[C@@H]3Cc4cccc5c4N3C(=O)[C@@H](NC(=O)c3cc4cc(C(=O)P(=O)(O)O)ccc4[nH]3)CC5)cc2)C(C)(C)C)cc1 [Compound I-141]
output: 10 to 100 nM

input: Using the record for CC(=O)N1CC[C@H]2CC[C@@H](C(=O)N[C@@H](CCC(N)=O)[C@@H](C)OCc3ccc(CCCCC(=O)N[C@H](C(=O)N4C[C@H](O)C[C@H]4C(=O)NCc4ccc(-c5scnc5C)cc4)C(C)(C)C)cc3)N2C(=O)[C@@H](NC(=O)c2cc3cc(C(=O)P(=O)(O)O)ccc3[nH]2)C1 [Compound I-165] , report its DC50.
output: 100 to 1000 nM

input: I would be grateful if you could share the reported DC50 for Cc1ncsc1-c1ccc(CNC(=O)[C@@H]2C[C@@H](O)CN2C(=O)[C@@H](NC(=O)CCCCCCCOC[C@H](CCC(N)=O)NC(=O)[C@@H]2Cc3cccc4c3N2C(=O)[C@@H](NC(=O)c2cc3cc(C(=O)P(=O)(O)O)ccc3[nH]2)CC4)C(C)(C)C)cc1 [Compound I-155] .
output: > 1000 nM

input: DC50 lookup needed for Cc1ncsc1-c1ccc([C@H](C)NC(=O)[C@@H]2C[C@@H](O)CN2C(=O)[C@@H](NC(=O)CCCCc2ccc(CO[C@H](C)[C@H](CCC(N)=O)NC(=O)[C@@H]3Cc4cccc5c4N3C(=O)[C@@H](NC(=O)c3cc4cc(C(=O)P(=O)(O)O)ccc4[nH]3)CC5)c(F)c2)C(C)(C)C)cc1 [Compound I-225] , thanks.
output: 100 to 1000 nM

input: // DC50 lookup, key: Cn1c(=O)n(C2CCC(=O)NC2=O)c2ccc(C[C@H]3CC[C@H](CC(=O)N4CC[C@H]5CC[C@@H](C(=O)N[C@@H](CCC(N)=O)C(=O)NC(c6ccccc6)c6ccccc6)N5C(=O)[C@@H](NC(=O)c5cc6cc(C(=O)P(=O)(O)O)ccc6[nH]5)C4)CC3)cc21 (stereo partly shown) [Compound I-166]
output: 10 to 100 nM

input: DC50 lookup needed for Cc1ncsc1-c1ccc([C@H](C)NC(=O)[C@@H]2C[C@@H](O)CN2C(=O)[C@@H](NC(=O)CCCCCc2cccc(NC(=O)[C@H](CCC(N)=O)NC(=O)[C@@H]3Cc4cccc5c4N3C(=O)[C@@H](NC(=O)c3cc4cc(C(=O)P(=O)(O)O)ccc4[nH]3)CC5)c2F)C(C)(C)C)cc1 [Compound I-250] , thanks.
output: 10 to 100 nM

input: Dear colleague, I am looking for the recorded DC50 of the following compound: Cc1ncsc1-c1ccc(CNC(=O)[C@@H]2C[C@@H](O)CN2C(=O)[C@@H](NC(=O)CCCCCc2cccc(OC[C@H](CCC(N)=O)NC(=O)[C@@H]3Cc4cccc5c4N3C(=O)[C@@H](NC(=O)c3cc4cc(C(=O)P(=O)(O)O)ccc4[nH]3)CC5)c2)C(C)(C)C)cc1 [Compound I-164]
output: 10 to 100 nM

input: Looking for the measured DC50 of Cc1ncsc1-c1ccc([C@H](C)NC(=O)[C@@H]2C[C@@H](O)CN2C(=O)[C@@H](NC(=O)CCCCc2cccc(NC(=O)C(CCC(N)=O)NC(=O)[C@@H]3Cc4cccc5c4N3C(=O)[C@@H](NC(=O)c3cc4cc(C(=O)P(=O)(O)O)ccc4[nH]3)CC5)c2Cl)C(C)(C)C)cc1 (stereo partly shown) [Compound I-246] , can you help?
output: 10 to 100 nM

###

Target: STAT3 (Homo sapiens, UniProt P40763)
Assay: STAT3 HiBiT degradation assay in transfected A549 cells
Assay type: cell-based
Set-up: expressed in transfected cells; host or cells: A549
Conditions: A549, 24 h; read-out: STAT3 HiBiT A549 degradation 24 h: Average external-Abs DC50
Property: DC50

input: // lookup DC50 for `Cc1ncsc1-c1ccc([C@H](C)NC(=O)[C@@H]2C[C@@H](O)CN2C(=O)[C@@H](NC(=O)CCCCCc2cc(Cl)cc(NC(=O)[C@H](CCC(N)=O)NC(=O)[C@@H]3Cc4cccc5c4N3C(=O)[C@@H](NC(=O)c3cc4cc(C(=O)P(=O)(O)O)ccc4[nH]3)CC5)c2)C(C)(C)C)cc1`
output: 10 to 100 nM

input: State the recorded DC50 for this entry: `Cc1ncsc1-c1ccc([C@H](C)NC(=O)[C@@H]2C[C@@H](O)CN2C(=O)[C@@H](NC(=O)CCCCCc2cc(F)cc(OC[C@H](CCC(N)=O)NC(=O)[C@@H]3Cc4cccc5c4N3C(=O)[C@@H](NC(=O)c3cc4cc(C(=O)P(=O)(O)O)ccc4[nH]3)CC5)c2F)C(C)(C)C)cc1`
output: < 10 nM

###

Molecular target: UniProtKB P40763
Assay: STAT3 HiBiT degradation assay in transfected A549 cells
Assay type: cell-based
Parameters: expressed in transfected cells; host or cells: A549
Details: A549, 24 h; read-out: STAT3 HiBiT A549 degradation 24 h: Average external-Abs DC50
Please respond with reported DC50 for every item in the list.

input: Item under review: `Cc1ncsc1-c1ccc([C@H](C)NC(=O)[C@@H]2C[C@@H](O)CN2C(=O)[C@@H](NC(=O)CCCCc2cccc(OC[C@H](CCC(N)=O)NC(=O)[C@@H]3CCCN3C(=O)[C@H](CC(C)C)NC(=O)c3cc4cc(C(=O)P(=O)(O)O)ccc4[nH]3)c2Cl)C(C)(C)C)cc1` . Reported DC50?
output: < 0.01 µM

input: Give the measured DC50 of `CC(=O)N1CC[C@H]2CC[C@@H](C(=O)N[C@@H](CCC(N)=O)COc3cccc(CCCCC(=O)N[C@H](C(=O)N4C[C@H](O)C[C@H]4C(=O)N[C@@H](C)c4ccc(-c5scnc5C)cc4)C(C)(C)C)c3F)N2C(=O)[C@@H](NC(=O)c2cc3cc(C(=O)P(=O)(O)O)ccc3[nH]2)C1` .
output: < 0.01 µM

input: DC50 lookup needed for `Cc1ncsc1-c1ccc(CNC(=O)[C@@H]2C[C@@H](O)CN2C(=O)[C@@H](NC(=O)CCCCCc2ccc(OC[C@H](CCC(N)=O)NC(=O)[C@@H]3Cc4cccc5c4N3C(=O)[C@@H](NC(=O)c3cc4cc(C(=O)P(=O)(O)O)ccc4[nH]3)CC5)cc2)C(C)(C)C)cc1` , thanks.
output: > 1 µM

input: For C/C(=C\C(=O)N[C@H]1CN(C(=O)CCCCCCc2ccc3c(c2)n(C)c(=O)n3C2CCC(=O)NC2=O)CC[C@H]2CC[C@@H](C(=O)N[C@@H](CCC(N)=O)C(=O)NC(c3ccccc3)c3ccccc3)N2C1=O)c1cccc(C(F)(F)P(=O)(O)O)c1 (some centres unmarked) , what is its reported DC50?
output: > 1 µM

input: What value of DC50 has been reported for the following compound? `Cc1ccc(CCCCCC(=O)N[C@H](C(=O)N2C[C@H](O)C[C@H]2C(=O)N[C@@H](C)c2ccc(-c3scnc3C)cc2)C(C)(C)C)cc1OC[C@H](CCC(N)=O)NC(=O)[C@@H]1Cc2cccc3c2N1C(=O)[C@@H](NC(=O)c1cc2cc(C(=O)P(=O)(O)O)ccc2[nH]1)CC3`
output: > 1 µM

input: Sample `C/C(=C\C(=O)N[C@H]1CCc2cccc3c2N(C1=O)[C@H](C(=O)N[C@@H](CCC(N)=O)[C@@H](C)OCc1ccc(CCCCC(=O)N[C@H](C(=O)N2C[C@@H](O)C[C@H]2C(=O)NCc2ccc(-c4scnc4C)cc2)C(C)(C)C)cc1)C3)c1ccc(C(F)(F)P(=O)(O)O)cc1` — what was its DC50?
output: > 1 µM

input: // lookup DC50 for `Cc1ncsc1-c1ccc([C@H](C)NC(=O)[C@@H]2C[C@@H](O)CN2C(=O)[C@@H](NC(=O)CCCCCc2cc(F)cc(OC[C@H](CCC(N)=O)NC(=O)[C@@H]3Cc4cccc5c4N3C(=O)[C@@H](NC(=O)c3cc4cc(C(=O)P(=O)(O)O)ccc4[nH]3)CC5)c2)C(C)(C)C)cc1`
output: 0.01 to 0.1 µM

input: Returns the measured DC50 for the input compound. Input: `Cc1cc(CCCC(=O)N[C@H](C(=O)N2C[C@H](O)C[C@H]2C(=O)N[C@@H](C)c2ccc(-c3scnc3C)cc2)C(C)(C)C)c(F)c(OC[C@H](CCC(N)=O)NC(=O)[C@@H]2Cc3cccc4c3N2C(=O)[C@@H](NC(=O)c2cc3cc(C(=O)P(=O)(O)O)ccc3[nH]2)CC4)c1`
output: > 1 µM

input: // DC50 lookup, key: `CC(=O)N1CC[C@H]2CC[C@@H](C(=O)N[C@@H](CCC(N)=O)COc3cccc(CCCCC(=O)N[C@H](C(=O)N4C[C@H](O)C[C@H]4C(=O)N[C@@H](C)c4ccc(-c5scnc5C)cc4)C(C)(C)C)c3Cl)N2C(=O)[C@@H](NC(=O)c2cc3cc(C(=O)P(=O)(O)O)ccc3[nH]2)C1`
output: < 0.01 µM

input: Entry Cc1ncsc1-c1ccc(CNC(=O)[C@@H]2C[C@@H](O)CC2C(=O)[C@@H](NC(=O)CCc2ccc(CCCOC[C@H](CCC(N)=O)NC(=O)[C@@H]3Cc4cccc5c4N3C(=O)[C@@H](NC(=O)c3cc4cc(C(=O)P(=O)(O)O)ccc4[nH]3)CC5)cc2)C(C)(C)C)cc1 (some centres unmarked) has what DC50?
output: > 1 µM

input: Name the recorded DC50 for Cn1c(=O)n(C2CCC(=O)NC2=O)c2cccc(CCCCCC(=O)N3CC[C@H]4CC[C@@H](C(=O)N[C@@H](CCC(N)=O)C(=O)NC(c5ccccc5)c5ccccc5)N4C(=O)[C@@H](NC(=O)c4cc5cc(C(=O)P(=O)(O)O)ccc5[nH]4)C3)c21 (some centres unmarked) .
output: > 1 µM

input: Query: DC50; subject: Cn1c(=O)n(C2CCC(=O)NC2=O)c2ccc(N3CC(CCCC(=O)N4CC[C@H]5CC[C@@H](C(=O)N[C@@H](CCC(N)=O)C(=O)NC(c6ccccc6)c6ccccc6)N5C(=O)[C@@H](NC(=O)c5cc6cc(C(=O)P(=O)(O)O)ccc6[nH]5)C4)C3)cc21 (some centres unmarked)
output: 0.1 to 1 µM

input: I am curious: what DC50 value has been reported for `Cc1ncsc1-c1ccc(CNC(=O)[C@@H]2C[C@@H](O)CN2C(=O)[C@@H](NC(=O)CCC2CCN(c3ccc(CO[C@H](C)[C@H](CCC(N)=O)NC(=O)[C@@H]4Cc5cccc6c5N4C(=O)[C@@H](NC(=O)c4cc5cc(C(=O)P(=O)(O)O)ccc5[nH]4)CC6)cc3)CC2)C(C)(C)C)cc1` ?
output: > 1 µM

input: Give the measured DC50 of Cn1c(=O)n(C2CCC(=O)NC2=O)c2ccc(C3CC(CCCC(=O)N4CC[C@H]5CC[C@@H](C(=O)N[C@@H](CCC(N)=O)C(=O)NC(c6ccccc6)c6ccccc6)N5C(=O)[C@@H](NC(=O)c5cc6cc(C(=O)P(=O)(O)O)ccc6[nH]5)C4)C3)cc21 (some centres unmarked) .
output: 0.1 to 1 µM

Where do these numbers come from? They come from patent US12077555B2.
